The values you see were collected from ChEMBL document CHEMBL1135130.

Assayed System: Integrin alpha-4/beta-1 (Homo sapiens, UniProt P05556+P13612)
Sequence (P05556 whole entry): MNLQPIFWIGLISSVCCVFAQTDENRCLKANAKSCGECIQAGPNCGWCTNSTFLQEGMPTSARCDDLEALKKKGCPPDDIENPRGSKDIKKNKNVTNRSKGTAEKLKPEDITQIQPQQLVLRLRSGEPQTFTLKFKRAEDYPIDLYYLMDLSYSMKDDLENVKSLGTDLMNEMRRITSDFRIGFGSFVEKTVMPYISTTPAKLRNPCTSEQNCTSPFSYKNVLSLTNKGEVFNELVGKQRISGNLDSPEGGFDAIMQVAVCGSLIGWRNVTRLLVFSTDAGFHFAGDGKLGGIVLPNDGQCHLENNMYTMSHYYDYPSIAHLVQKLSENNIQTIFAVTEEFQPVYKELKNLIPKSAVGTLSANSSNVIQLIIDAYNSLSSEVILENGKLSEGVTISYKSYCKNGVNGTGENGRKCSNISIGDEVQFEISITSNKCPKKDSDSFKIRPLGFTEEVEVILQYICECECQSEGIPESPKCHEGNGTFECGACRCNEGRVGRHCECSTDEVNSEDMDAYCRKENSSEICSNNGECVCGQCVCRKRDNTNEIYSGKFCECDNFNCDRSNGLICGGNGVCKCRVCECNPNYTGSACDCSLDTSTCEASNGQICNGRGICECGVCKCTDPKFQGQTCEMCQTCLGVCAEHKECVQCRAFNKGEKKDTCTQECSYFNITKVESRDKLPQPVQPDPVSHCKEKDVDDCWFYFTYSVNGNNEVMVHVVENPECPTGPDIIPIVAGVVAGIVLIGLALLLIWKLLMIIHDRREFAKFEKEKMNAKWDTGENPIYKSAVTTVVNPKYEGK
Sequence (P13612 whole entry): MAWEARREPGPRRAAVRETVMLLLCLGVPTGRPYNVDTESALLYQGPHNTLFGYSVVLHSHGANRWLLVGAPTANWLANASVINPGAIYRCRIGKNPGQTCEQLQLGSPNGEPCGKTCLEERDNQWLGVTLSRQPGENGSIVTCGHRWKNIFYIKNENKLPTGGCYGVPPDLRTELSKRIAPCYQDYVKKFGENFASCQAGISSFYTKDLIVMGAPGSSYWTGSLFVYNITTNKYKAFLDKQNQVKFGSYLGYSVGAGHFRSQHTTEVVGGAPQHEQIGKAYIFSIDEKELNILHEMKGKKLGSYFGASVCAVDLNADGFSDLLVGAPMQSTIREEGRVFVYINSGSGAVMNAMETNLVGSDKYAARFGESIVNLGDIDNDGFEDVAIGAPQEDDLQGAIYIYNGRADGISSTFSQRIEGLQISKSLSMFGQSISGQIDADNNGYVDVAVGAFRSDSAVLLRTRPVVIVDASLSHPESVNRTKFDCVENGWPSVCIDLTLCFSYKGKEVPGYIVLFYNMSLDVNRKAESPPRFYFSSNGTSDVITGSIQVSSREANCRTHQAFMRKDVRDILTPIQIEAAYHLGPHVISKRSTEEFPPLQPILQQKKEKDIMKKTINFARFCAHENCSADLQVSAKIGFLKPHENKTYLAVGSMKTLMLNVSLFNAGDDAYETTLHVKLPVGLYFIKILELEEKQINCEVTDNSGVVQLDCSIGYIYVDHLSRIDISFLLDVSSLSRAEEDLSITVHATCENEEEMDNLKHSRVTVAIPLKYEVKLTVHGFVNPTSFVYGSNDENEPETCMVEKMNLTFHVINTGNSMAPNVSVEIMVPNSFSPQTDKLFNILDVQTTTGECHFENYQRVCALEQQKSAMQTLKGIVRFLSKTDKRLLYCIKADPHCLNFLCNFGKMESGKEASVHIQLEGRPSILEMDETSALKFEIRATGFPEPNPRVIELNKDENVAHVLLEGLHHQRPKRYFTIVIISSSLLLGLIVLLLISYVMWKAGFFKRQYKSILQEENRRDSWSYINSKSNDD
Test Protocol: Inhibition of alpha4-beta1 (very late) antigen binding with VCAM-1 immunoglobulin
Assay type: protein-complex assay
pIC50: −log10 of the molar value.
Attribute Measured: pIC50

COc1ccccc1-c1ccc(C[C@H](NC(=O)[C@@]2(C(=O)N3CCOCC3)CCCO2)C(=O)O)cc1 ... 9.27
COc1ccccc1-c1ccc(C[C@H](NC(=O)[C@@]2(CC(=O)N3CCOCC3)CCCO2)C(=O)O)cc1 ... 7.64
COc1ccccc1-c1ccc(C[C@H](NC(=O)[C@@]2(C)CCCO2)C(=O)O)cc1 ... 8.41

[1] COCC[C@]1(C(=O)N[C@@H](Cc2ccc(-c3c(OC)cccc3OC)cc2)C(=O)O)CCCO1
[2] COc1cccc(OC)c1-c1ccc(C[C@H](NC(=O)[C@@]2(CCCO)CCCO2)C(=O)O)cc1
Ask: // which entry has the larger pIC50 value, 1 or 2 ? The response must carry the label of the picked entry.
Reply: 1
(1: 9.15, 2: 8.67)

====

Assayed System: Integrin alpha-4/beta-1 (Homo sapiens, UniProt P05556+P13612)
Test Protocol: Inhibition of alpha4-beta1 (very late) antigen binding with VCAM-1 immunoglobulin
Type: protein-complex assay
Attribute Measured: IC50 (nM)

COc1cccc(OC)c1-c1ccc(C[C@H](NC(=O)[C@@]2(C)CCCO2)C(=O)O)cc1 ... 0.34
COc1cccc(OC)c1-c1ccc(C[C@H](NC(=O)[C@@]2(CCN(C)C)CCCO2)C(=O)O)cc1 ... 15.5
COc1cccc(OC)c1-c1ccc(C[C@H](NC(=O)[C@@]2(CCCCN(C)C)CCCO2)C(=O)O)cc1 ... 16.3
COc1cccc(OC)c1-c1ccc(C[C@H](NC(=O)[C@@]2(c3ccc(Cl)cc3)CCCO2)C(=O)O)cc1 ... 0.55

[P] COCCCC[C@]1(C(=O)N[C@@H](Cc2ccc(-c3c(OC)cccc3OC)cc2)C(=O)O)CCCO1
[Q] COc1ccccc1-c1ccc(C[C@H](NC(=O)[C@@]2(c3ccc(C(C)(C)C)cc3)CCCO2)C(=O)O)cc1
Ask: // select label with min value of measured IC50 from [ P , Q ] Give the label of your selection.
Reply: P
(P: 0.62 nM, Q: 1.8 nM)

[a] COc1ccccc1-c1ccc(C[C@H](NC(=O)[C@@]2(c3ccc(C)c(C)c3)CCCO2)C(=O)O)cc1
[b] COc1cccc(OC)c1-c1ccc(C[C@H](NC(=O)[C@@]2(c3ccc(Cl)c([N+](=O)[O-])c3)CCCO2)C(=O)O)cc1
Ask: So which one has the bigger IC50 here, a or b ? Choose, then provide that item's label.
Reply: a

====

Assayed System: Integrin alpha-4/beta-7 (Homo sapiens) (UniProt P13612+P26010)
Test Protocol: Selectivity for alpha4-beta7 to that of alpha4-beta1
Format: protein-complex assay
Attribute Measured: Ratio

COc1ccccc1-c1ccc(C[C@H](NC(=O)[C@@]2(c3cc(C(F)(F)F)cc(C(F)(F)F)c3)CCCO2)C(=O)O)cc1 ... 108

[a] COc1cccc(OC)c1-c1ccc(C[C@H](NC(=O)[C@@]2(c3nc4ccccc4o3)CCCO2)C(=O)O)cc1
[b] COc1cccc(OC)c1-c1ccc(C[C@H](NC(=O)[C@@]2(CCN(C)C)CCCO2)C(=O)O)cc1
Ask: Returns the identifier with the smallest measured Ratio among a and b . Kindly state the label of the option you pick.
Reply: b
